- Assayed Target: T1, TNFR2-His (Sino Biological, 10417-H08H, NP_001057.1 Met1-Asp257, with multi-histidine tag expressed on … (human, UniProt P20333 23-257))
- T1 construct: range 1-257; Bought protein; also called recombinant human TNFR2 protein; TNFR2-His antigen; not shown: C-terminal multi-histidine tag
- T1 sequence (looked up): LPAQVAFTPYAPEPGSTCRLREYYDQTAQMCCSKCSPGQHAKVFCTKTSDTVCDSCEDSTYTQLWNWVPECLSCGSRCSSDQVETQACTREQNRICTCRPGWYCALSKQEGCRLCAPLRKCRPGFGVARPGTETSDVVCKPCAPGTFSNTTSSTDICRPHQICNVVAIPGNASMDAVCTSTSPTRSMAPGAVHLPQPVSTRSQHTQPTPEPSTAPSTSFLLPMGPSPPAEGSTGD
- Assay Explanation: BLI, antibody captured on AHC probe, TNFR2 in solution
Measured Metric: kon (M⁻¹ s⁻¹)
// return numeric value only (unit: M⁻¹ s⁻¹, not printed)

Recorded results for 2 binders are shown here.
{"Binder": "12E12-huVH6 + huVL2(P08937) (antibody, V domains shown, Humanized 12E12) VH: QVQLVQSGAEVKKPGASVKVSCKASGYTITDFYIHWVRQAPGQGLEWIGRVDPEDGNTEYAPNFQDRATMTTDTSTSTAYLELSSLRSEDTAVYYCSTWDGFSYFDYWGQGTTVTVSS VL: QAVVTQEPSLTVSPGGTVTLTCRSSTGPVTTNNYANWVQQKPGQAFRGLIGGTNDRAPGVPARFSGSLLGGKAALTLSGAQPEDEAEYYCALWYRNHWVFGGGTKLTVL", "Units Symbol": "M⁻¹ s⁻¹", "kon": 849000}
{"Binder": "12E12-huVH8 + huVL4(P08942) (antibody, V domains shown, Humanized 12E12) VH: EVQLVQSGAEVKKPGATVKISCKVSGYTITDFYIHWVQQAPGKGLEWMGRVDPEDGNTEYAPNFQDRVTITADTSTDTAYMELSSLRSEDTAVYYCSTWDGFSYFDYWGQGTTVTVSS VL: EAVVTQSPATLSLSPGERATLSCRSSTGPVTTNNYANWVQQKPGQAFRGLIGGTNDRAPGIPARFSGSGSGTDTTLTISSLQPEDFAVYYCALWYRNHWVFGGGTKLEIK", "Units Symbol": "M⁻¹ s⁻¹", "kon": "1.34e+06"}

Now for the binder whose kon we want.
Query: Recorded kon for 12E12-huVH7 + huVL4(P08941) (antibody, V domains shown, Humanized 12E12) VH: QVQLVQSGAEVKKPGASVKVSCKASGYTITDFYIHWVRQAPGKGLEWMGRVDPEDGNTEYAQKFQGRVTMTTDTSTDTAYMELSSLRSEDTAVYYCSTWDGFSYFDYWGQGTTVTVSS VL: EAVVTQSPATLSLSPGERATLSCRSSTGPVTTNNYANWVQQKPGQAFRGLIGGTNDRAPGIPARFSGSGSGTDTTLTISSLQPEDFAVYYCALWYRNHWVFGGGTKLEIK , please?
Response: 1.25e+06
